Numbers sourced from ChEMBL document CHEMBL1145096.

# System: SK-LU-1
# experimental_details: Inhibitory activity against SK-LU-1 (human,lung,adenocarcinoma) cell line
# Format: functional, cell-based
value_kind: IC50 (nM)

1 = CCCCCCCCCCCCSCC(COP(=O)(O)OC[C@H]1O[C@@H](n2ccc(N)nc2=O)C(F)(F)[C@@H]1O)OCCCCCCCCCC (some centres not stated)
2 = Nc1ccn([C@@H]2O[C@H](CO)[C@@H](O)C2(F)F)c(=O)n1
Endpoint returns the identifier whose IC50 is numerically larger, either 1 or 2 . # respond with the chosen item's label
1
(1: 1120 nM, 2: 55 nM)

====

# Test system: CEM-SS
# experimental_details: Inhibitory activity against CEM-SS (human T-4 lymphoblastoid clone) cell line
# Assay type: functional, cell-based
value_kind: IC50 (nM)

a = CCCCCCCCCCCCSCC(COP(=O)(O)OC[C@H]1O[C@@H](n2ccc(N)nc2=O)C(F)(F)[C@@H]1O)OCCCCCCCCCC (some centres not stated)
b = Nc1ccn([C@@H]2O[C@H](CO)[C@@H](O)C2(F)F)c(=O)n1
Endpoint returns the identifier whose IC50 is numerically larger, either a or b . # respond with the chosen item's label
a
(a: 600 nM, b: 30 nM)

====

# Tested on: HL-60
# experimental_details: Inhibitory activity against HL-60 (human, promyelocytic leukemia) cell line
# Format: functional, cell-based
pIC50: −log10 of the molar value.
value_kind: pIC50

[
  {
    "compound": "CCCCCCCCCCCCSCC(COP(=O)(O)OCC1OC(n2ccc(N)nc2=O)[C@@H](O)C1O)OCCCCCCCCCC (some centres undefined)",
    "pIC50": 4.17
  }
]

I = CCCCCCCCCCCCSCC(COP(=O)(O)OC[C@H]1O[C@@H](n2ccc(N)nc2=O)C(F)(F)[C@@H]1O)OCCCCCCCCCC (some centres undefined)
II = Nc1ccn([C@@H]2O[C@H](CO)[C@@H](O)C2(F)F)c(=O)n1
III = Nc1ccn([C@@H]2O[C@H](CO)[C@@H](O)[C@@H]2O)c(=O)n1
Order field: pIC50 | Direction: descending (largest first) List the labels in the requested order.
II, III, I
(II: 6.48, III: 6.12, I: 5.74)

====

# System: SCC-25
# experimental_details: Inhibitory activity against SCC-25 (human, squamous cell carcinoma, tongue) cell line
# Type: functional, cell-based
value_kind: IC50 (nM)

A = Nc1ccn([C@@H]2O[C@H](CO)[C@@H](O)C2(F)F)c(=O)n1 [GEMCITABINE]
B = CCCCCCCCCCCCSCC(COP(=O)(O)OC[C@H]1O[C@@H](n2ccc(N)nc2=O)C(F)(F)[C@@H]1O)OCCCCCCCCCC (some centres not stated)
Could you tell me which of these two has the smaller IC50 figure? First: A Second: B # respond with the chosen item's label
A
